Examples of sequences with documented recombinant UMI read abundance (log10) follow.
experiment: recombinant UMI read abundance after kanamycin selection (control-corrected) (log10(CPM+1)); higher = more efficient recombination; extreme values may be limits of the assay; sequences stand for … in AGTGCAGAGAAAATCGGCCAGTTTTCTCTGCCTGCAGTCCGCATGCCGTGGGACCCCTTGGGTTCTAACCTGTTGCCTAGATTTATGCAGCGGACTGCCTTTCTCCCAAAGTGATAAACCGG…AGGTTGGTTTCACT; site = the 11-nt donor;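 further: IS621 bridge recombinase in Escherichia coli cells against a fixed T5 target plasmid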

seq.string	recombinant UMI read abundance (log10)
AGGTTTCCATGGACCGGTTTTCCCGGTAATCCGTATTTGTG (site AGGTTGCCTCA)	0.00446
CAAGCAACATGGACCGGTTTTCCCGGTAATCCGTATTTGCT (site CAAGCACCTAG)	0
GCATACTCATGGACCGGTTTTCCCGGTAATCCGTATTTGCA (site GCATACTCTTG)	2.96
TTCGTCCCATGGACCGGTTTTCCCGGTAATCCGTATTTGTC (site TTCGTCCCTGA)	0
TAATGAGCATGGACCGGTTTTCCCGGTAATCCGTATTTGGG (site TAAAGAGCTCC)	0.00438
CTTCATACATGGACCGGTTTTCCCGGTAATCCGTATTTGTT (site CTTCATACTAA)	1.32
GTAGGTACATGGACCGGTTTTCCCGGTAATCCGTATTTGCC (site GTAGGTACTGG)	0.956
AACCGTACATGGACCGGTTTTCCCGGTAATCCGTATTTGAT (site AACCGTACTAT)	1
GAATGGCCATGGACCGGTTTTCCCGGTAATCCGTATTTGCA (site TAATGGCCTTG)	0.00558
GCGAAGACATGGACCGGTTTTCCCGGTAATCCGTATTTGCT (site GCGAATACTAG)	0
TAACGTCCATGGACCGGTTTTCCCGGTAATCCGTATTTGTA (site TAACGTCCTTA)	0.935
GGCCATCCATGGACCGGTTTTCCCGGTAATCCGTATTTGAA (site GGCCATCCTTT)	0.00888
TCCAAATCATGGACCGGTTTTCCCGGTAATCCGTATTTGCC (site TCCAATTCTGG)	0
CTACTATCATGGACCGGTTTTCCCGGTAATCCGTATTTGAC (site CTAGTATCTGT)	0
CGCCGTTCATGGACCGGTTTTCCCGGTAATCCGTATTTGCT (site CGCCGTACTAG)	0
TATCGAACATGGACCGGTTTTCCCGGTAATCCGTATTTGTT (site TATCGAACTAA)	0.00888
CCAGCATCATGGACCGGTTTTCCCGGTAATCCGTATTTGCT (site CCAGCATCTAG)	0.0975
TCCAGATCATGGACCGGTTTTCCCGGTAATCCGTATTTGGG (site TCCAGATCTCC)	0
